meta.source: patent US20210284747A1

Subject of test: Full length LIGHT W197A on HEK293FF cells (Homo sapiens (Human), UniProt O43557 1-240)
Sequence (O43557 whole entry W197A): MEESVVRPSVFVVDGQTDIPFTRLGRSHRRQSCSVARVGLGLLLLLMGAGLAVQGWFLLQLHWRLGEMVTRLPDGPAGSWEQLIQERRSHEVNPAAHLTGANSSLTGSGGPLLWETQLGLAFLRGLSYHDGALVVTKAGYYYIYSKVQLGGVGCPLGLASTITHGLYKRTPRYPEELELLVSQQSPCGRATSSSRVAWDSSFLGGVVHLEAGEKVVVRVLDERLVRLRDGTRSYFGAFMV
Assay overview: flow cytometry, HEK293FF, mAb at EC50
Let's look at some binders and their measured % of WT binding.
Measure: % of WT binding (%)

Binder	Measure	Numeric readout
3E09 chimeric IgG4 mAb (antibody, V domains shown, Chimeric human IgG4 (S-to-P, L-to-E) with human CL, as m1; also called Parental 3E09) VH: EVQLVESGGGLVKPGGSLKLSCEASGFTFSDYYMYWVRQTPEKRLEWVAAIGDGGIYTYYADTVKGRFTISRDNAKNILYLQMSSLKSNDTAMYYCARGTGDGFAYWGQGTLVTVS VL: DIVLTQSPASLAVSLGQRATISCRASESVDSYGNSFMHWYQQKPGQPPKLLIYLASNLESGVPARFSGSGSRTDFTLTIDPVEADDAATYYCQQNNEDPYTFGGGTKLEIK	% of WT binding	1
2B11 chimeric IgG4 mAb (antibody, V domains shown, Chimeric human IgG4 (S-to-P, L-to-E) with human CL, as m1; Often misprinted 2B111; also called Parental 2B11; 2B111) VH: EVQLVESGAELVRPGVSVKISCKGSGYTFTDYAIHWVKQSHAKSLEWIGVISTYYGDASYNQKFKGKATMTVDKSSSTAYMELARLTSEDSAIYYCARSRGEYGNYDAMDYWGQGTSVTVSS VL: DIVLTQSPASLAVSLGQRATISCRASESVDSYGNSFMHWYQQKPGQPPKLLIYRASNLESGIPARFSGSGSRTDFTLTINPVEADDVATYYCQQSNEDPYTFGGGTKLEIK	% of WT binding	0
2E08 chimeric IgG4 mAb (antibody, V domains shown, Chimeric human IgG4 (S-to-P, L-to-E) with human CL, as m1; also called Parental 2E08) VH: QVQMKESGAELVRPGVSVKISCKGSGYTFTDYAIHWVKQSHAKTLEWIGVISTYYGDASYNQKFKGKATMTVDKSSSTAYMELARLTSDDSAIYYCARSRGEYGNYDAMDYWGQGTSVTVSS VL: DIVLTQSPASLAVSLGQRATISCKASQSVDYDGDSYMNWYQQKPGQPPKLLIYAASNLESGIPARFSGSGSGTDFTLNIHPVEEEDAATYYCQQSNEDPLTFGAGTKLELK	% of WT binding	0
3D12 chimeric IgG4 mAb (antibody, V domains shown, Chimeric human IgG4 (S-to-P, L-to-E) with human CL, as m1; also called Parental 3D12; 03D12) VH: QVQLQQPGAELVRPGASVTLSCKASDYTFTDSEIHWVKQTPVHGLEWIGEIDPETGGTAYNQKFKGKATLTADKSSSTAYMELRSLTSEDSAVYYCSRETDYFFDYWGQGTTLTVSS VL: DIQMTQSPASLSASVGETVTITCGASENIYGALNWYQRKQGKSPQLLIYGATNLADGMSSRFSGSGSGRQYSLKISSLHPDDVATYYCQNVLSTPWTFGGGTKLEIK	% of WT binding	1
